This listing pairs compounds with measured Tm.
- System: Nucleic Acid
- experimental-protocol: Binding affinity to polydAdT DNA containing 100% AT assessed as maximum melting temperature at 1 uM by spectrophotometry analysis
- Format: nucleic-acid assay

compound: CN(C)CCC(NCCNc1ccnc2cc(Cl)ccc12)c1ccccc1 (centres undefined)
Tm [°C]: 46.8
--
compound: CC(C)NCCNc1ccnc2cc(Cl)ccc12
Tm [°C]: 46.6
--
compound: CCN(CC)CCCC(C)Nc1ccnc2cc(Cl)ccc12 (centres undefined)
Tm [°C]: 46.9
--
compound: Clc1ccc2c(NCCNC(CCN3CCCCC3)c3ccccc3)ccnc2c1 (centres undefined)
Tm [°C]: 46
